# assay.remarks: Pharmacokinetic evaluation in rat
# Type: in vivo
# protocol.conditions: male, Sprague-Dawley, plasma, 5 mg/kg, oral, Table 2, read-out: Pharmacokinetic area under the plasma concentration curve (rat) AUC
The reader will find reported AUC values listed item by item below.
Return type: number; implicit unit µM·h.

Request: Return reported AUC. Input compound: CN(C)CC[C@H](CSc1ccccc1)Nc1ccc(S(=O)(=O)NC(=O)c2ccc(N3CCN(Cc4ccccc4-c4ccc(Cl)cc4)CC3)cc2)cc1S(=O)(=O)C(F)(F)F
Result: 0.665

Further cases:
Request: Return reported AUC. Input compound: CN(C)CC[C@H](CSc1ccccc1)Nc1ccc(S(=O)(=O)NC(=O)c2ccc(N3CCN(Cc4ccccc4-c4ccc(Cl)cc4)CC3)cc2)cc1C#N [C, reference compound]
Result: 1.92

Request: Return reported AUC. Input compound: CN(C)CC[C@H](CSc1ccccc1)Nc1ccc(S(=O)(=O)NC(=O)c2ccc(N3CCN(Cc4ccccc4-c4ccc(Cl)cc4)CC3)cc2)cc1C(F)(F)F [A, reference compound]
Result: 4.41

Recorded values, source patent US8624027B2.
